Every entry's value here was drawn from the supplement of paper PMC9170038.

Quick reference for apparent KD of MS2 coat protein among some sequences
- Test system: MS2 coat protein
- testDetails: apparent KD of MS2 coat protein; designed switch direction (-1 OFF switch, 1 ON switch): 1; higher = weaker reporter binding
- conditionLabel: input ligand: none
The figure you give is taken to be in nM; do not add the unit.

Solved entries (count: 8):
AGAUGUUAAUUAGGAUAUGGGCACAUGAGGAUCACCCAUGUAACGUAGAUACGAUGUGGUCAAGUCUAGAAGGGAUAGCUAACA [SameState NG2 #77] (Eterna round: R96, puzzle: Same State NG 2); 70.6
CGUGAACAUGAGGAUCACCCAUGUGAAAAACAUAGAGGAUAUGUCACGUGAGUGUAAAAGACAGAAGGCUAUCGUG [Mod 3 of Round 1 starryjess' Mod pf Nando] (Eterna round: R96, puzzle: Same State 1); 77.6
GCUAGAAUUAAUGCUAACAUGAGGAUCACCCAUGUAUGUUGGCAGGAUAUCGUUUGCUUUGCAAACGAGAAGGGCCAUACUAGC [JL SSNG3 1.09] (Eterna round: R96, puzzle: Same State NG 3); 26.3
CUGAGAUGUCAAGGAUAUCACGUCGAUUAGACGUGAGAAGGUGAUCUGCACAUGAGGAUCACCCAUGUGUUACAUGGAACUCAG [Brourd's SSNG1/1-A2 mod 11] (Eterna round: R96, puzzle: Same State NG 1); 431
GUUACAUGAGGAUCACCCAUGUAUGUGUGGGAGUAAGUGUCUUAGGAUAUCUAUGAUUUAAUUUUAGAGAAGGAAGAUUGUUGU [JMF's solution 86] (Eterna round: R96, puzzle: Same State NG 3); 90.8
AUUAUUUCAUGAGGAUAUGGCACCUUAUUGGUGCCAGAAGGCAUGUCAUUAGACAUGAGGAUCACCCAUGUAUUAUAUUAUAUA [Fiskers NG1ss - 13] (Eterna round: R96, puzzle: Same State NG 1); 534
AGCAGAGAAAUAGGAUAUGGCUGAGACAUGACGGCGGUACAUGAGGAUCACCCAUGUCCGCAAAGCCAGAAGGGUUUUGAAUGU [Ticecexe] (Eterna round: R96, puzzle: Same State NG 2); 33.4
CCUUAACAGUGAGGAUAUCGUUGCGAUAAGUGACGAGAAGGCACUCAUGUGAAAUAAACAUACAUGAGGAUCACCCAUGUUGUG [Omei SS(NG)1 Bv5] (Eterna round: R96, puzzle: Same State NG 1); 44.2

Query: Recall and state the measured apparent KD of MS2 coat protein for GCUCGACUGAUGGCCUACAUGAGGAUCACCCAUGUGAUUGGGCAGGAUAUCUAGAUGCAGGAUGUAGAGAAGGGCCGGUCGAGC [SameState NG3 #46] (Eterna round: R96, puzzle: Same State NG 3) .
Reply: 475

Query: Quickly give me recorded apparent KD of MS2 coat protein for GUGGAGGGUUGAGGAUAUUGAAUACAUAUGUUUAACAUGAGGAUCACCCAUGUGGGUUGCGGUAUCGAGAAGGUAAGUUGCUGG [salish99_SSNG2_r04_038] (Eterna round: R96, puzzle: Same State NG 2)
Reply: 89.3

Query: Provide only the value of recorded apparent KD of MS2 coat protein for UGGCUCAGAGCAGGAUAUAUGUAAUAACAUGAGGAUCACCCAUGUGUCGAGCUUCGGCUCGACACAUAGAAGGGCUCUGAGCCU [SSNG2/2-B3] (Eterna round: R96, puzzle: Same State NG 2)
Reply: 40.3

Query: Give the reported apparent KD of MS2 coat protein for this sequence. CCGUUCAAUAAACAUGAGGAUCACCCAUGUGAUAAUAAGGGUGAGGAUAUGCAUCUGAAACAGGUGCAGAAGGCAUAAGAGCGG [JL SSNG3 3.91] (Eterna round: R96, puzzle: Same State NG 3)
Reply: 316

Query: Specify measured apparent KD of MS2 coat protein for CUGAGCAGUCAAGGAUAUCACGUCGAAUAGACGUGAGAAGGUGAUUAAUACAUGAGGAUCACCCAUGUAAUACAUGAAGCUCAG [SSNG1/11-A1] (Eterna round: R96, puzzle: Same State NG 1) .
Reply: 46.6

Query: Given AAAUCAAGUAAAACAUGAGGAUCACCCAUGUGAGAAGCUUCCAAGGAUAUGGUAUGCAUGGAAACCCAGAAGGUGGUCAAAGCA [Eternabot solution 29] (Eterna round: R96, puzzle: Same State NG 3) , respond with its apparent KD of MS2 coat protein.
Reply: 272

Query: Identify measured apparent KD of MS2 coat protein corresponding to AUAGUUGCCGAAGGAUAUGAUGAGGAUCACCCAUCAGAAGGUUGGCUAUUGGGUGGACAUGAGGAUCACCCAUGUCCUUUGGUA (Eterna round: R96, puzzle: Same State NG 1)
Reply: 147

====

Quick list: apparent KD of MS2 coat protein per entry.
- Test system: MS2 coat protein
- testDetails: apparent KD of MS2 coat protein; designed switch direction (-1 OFF switch, 1 ON switch): -1; higher = weaker reporter binding
- conditionLabel: Eterna round: R95; input ligand: FMN 200 uM
Write the answer as a number in nM, unit excluded.

Example entries begin here.
CUGGUCCGAGGAUAUAUUAAGUGAAACAUGAGGAUCACCCAUGUUAUUUGAUGGAAGAAAAUAGAAGGCGGACUAG [Mat - Exclusion 5 - JL mod - D59] (puzzle: Exclusion 5); 29.9
GAUUAUGCGAGCUUUAGGGACAUGAGGAUCACCCAUGUUCGUCUUAUUGAUCUGGAUACACUAACAUACCUAAAUCU [JMF 13] (puzzle: Sensor v3, turn-off variant 1); 26.8
AAUUUAACAUAGGAUAUCGAAUUUAUUAUUUAACGAGAAGGAUGAACAUGAGGAUCACCCAUGUGGUAUCAUGG [Mat - Exclusion 6 - JL Mod - D22] (puzzle: Exclusion 6); 100
AAGAAACAUGAGGAUCACCCAUGUGAGGAUAUGACGAAGAAAAGAAAAGAAAGAAGAUUCAGAAGGCACAAAGG [salish99-ex1_r3_061] (puzzle: Exclusion 1); 90.1
GAGUAGCUAGGAUAUCGAAAACAUCACAUGAGGAUCACCCAUGUGCCGGGUGCUCAGAUGCGAGAAGGAGCAAAGA [Reatququ] (puzzle: Exclusion 5); 219

Query: Answer with reported apparent KD of MS2 coat protein of GGUCUGCGAGGAUAUACAUGAGGAUCACCCAUGUGCGAGAAACUAGUGAGGUCGGUUGGUAGAAGGCGCGGACG [Mat - Exclusion 3 - Mod of JL D89] (puzzle: Exclusion 3)
Reply: 13.9

Query: In one line, give reported apparent KD of MS2 coat protein of the entry AAAACACAUGAGGAUCACCCAUGUGAGGAUAUGUUCAUGUUCAGCAAACUGAACAUGAACAGAAGGCACAUAAA [JR_Exclusion1_Sub016] (puzzle: Exclusion 1) .
Reply: 44.7

Query: Identify measured apparent KD of MS2 coat protein corresponding to AAAUACAAGUAAGGAUUCUACAUGAGGAUCACCCAUGUGCUCGUCUUAUAAAGUACUAUCACGAAAGUGAUAGUACA [Sensor 3, v1 - 38] (puzzle: Sensor v3, turn-off variant 1)
Reply: 22

Query: For CUAGAUCUUCGGAUCUAGUACAUGAGGAUCACCCAUGUGACGAGUUGAUCCUCAUACAAGCUUUUUGCUCGUCUUAU [Sensor v3 - Turn-off variant 1 - 16] (puzzle: Sensor v3, turn-off variant 1) , write its apparent KD of MS2 coat protein.
Reply: 19.3

Query: Could you please provide reported apparent KD of MS2 coat protein for GCAUUUGAGCAGGAUAUAGCCUGAACAUAAUGGUUAGAAGGGCUCACAUGAGGAUCACCCAUGUGGUGUCCAAA [Inratete] (puzzle: Exclusion 6) ? Thanks!
Reply: 76.4

====

- Tested on: MS2 coat protein
- testDetails: apparent KD of MS2 coat protein; designed switch direction (-1 OFF switch, 1 ON switch): -1; higher = weaker reporter binding
- conditionLabel: Eterna round: R95; input ligand: microRNA oligo, concentration not stated
Each record here notes measured apparent KD of MS2 coat protein.
Give your result in nM as a bare value.

UAAAAGGUAGGAUAUACGAAAAAAAAGGGUAGAAAAAAAACACAUGAGGAUCACCCAUGUAGAAGGACCAAAAC [salish99_ex2_r3_047] (puzzle: Exclusion 2); 33.2

Query: Recall the reported apparent KD of MS2 coat protein of GUGUACCGAGGAUAUGCUGGAAUCUAGCGAAGCUAGGUUCCACAUGAGGAUCACCCAUGUAGAAGGUGGUACAC [Dot plot directed A v7] (puzzle: Exclusion 2) when tested on MS2 coat protein.
Reply: 55.5

Query: Lab note: MS2 coat protein assay, enter apparent KD of MS2 coat protein for AAAAUGCAAGGAUAUACAUAGAUCCGACCUACUUAAAACAAACAUGAGGAUCACCCAUGUAGAAGGUGCCAAAA [Raxerebiti] (puzzle: Exclusion 2) here
Reply: 23.7

Query: Provide apparent KD of MS2 coat protein, tested on MS2 coat protein, for CCAGCGUGUGUGAGGAUAUGCUGGUCCUUGGAUCAGCAGAAGGCACAUGAGGAUCACCCAUGUGAGAACGUUGG [JL bmx4 3.33] (puzzle: Brourd's mod of Exclusion 4) .
Reply: 17.6

Query: State measured apparent KD of MS2 coat protein of the sequence GCUGCGCGAGGAUAUGCGGUUUGCGCUGUGGCCCGUGGCGUACAUGAGGAUCACCCAUGUAGAAGGCGUGUGGG [Apr-15 SS2-55] (puzzle: Exclusion 2) with MS2 coat protein.
Reply: 18.6
